# growth listing for each entry below
# Tested on: SK-MEL-2 melanoma
# PROTOCOL: NCI-60 one-dose screen, 48 h (100 = growth as untreated, 0 = no growth, -100 = all killed)
# DETAILS: 10 µM unless noted
This is part of a sample that, as a whole, favours compounds with a hit. Of some 83,000 tested, about 20% had one in any assay.

[
  {
    "MOLECULE": "NC(Cc1c[nH]c2ccccc12)C(=O)O (centres undefined)",
    "TARGET": "SK-MEL-2 melanoma",
    "growth (%)": 110
  },
  {
    "MOLECULE": "ClCCOCCOc1ccc(C2CCCCC2)cc1",
    "TARGET": "SK-MEL-2 melanoma",
    "growth (%)": 102
  },
  {
    "MOLECULE": "NN1CCOC(c2ccccc2)C1 (centres undefined)",
    "TARGET": "SK-MEL-2 melanoma",
    "growth (%)": 110
  },
  {
    "MOLECULE": "c1ccc(-c2nc3ccccc3s2)cc1",
    "TARGET": "SK-MEL-2 melanoma",
    "growth (%)": 112
  },
  {
    "MOLECULE": "CC1CCC2(OC1)OC1CC3C4CC=C5CC(O)CCC5(C)C4CCC3(C)C1C2C (centres undefined)",
    "TARGET": "SK-MEL-2 melanoma",
    "growth (%)": 122
  },
  {
    "MOLECULE": "CCCCOC(=O)/C=C\\C(=O)NC(N)=O",
    "TARGET": "SK-MEL-2 melanoma",
    "growth (%)": 111
  },
  {
    "MOLECULE": "CN(C)CC1CCCCCC(CN(C)C)C1=O (centres undefined)",
    "TARGET": "SK-MEL-2 melanoma",
    "growth (%)": 106
  },
  {
    "MOLECULE": "Cc1cc(-c2cc(C)c(O)c(C)c2)cc(C)c1O",
    "TARGET": "SK-MEL-2 melanoma",
    "growth (%)": 73.5
  },
  {
    "MOLECULE": "O=CN1CCCCC1",
    "TARGET": "SK-MEL-2 melanoma",
    "growth (%)": 125
  },
  {
    "MOLECULE": "CC(C)C(C)(C)c1ccc(O)cc1",
    "TARGET": "SK-MEL-2 melanoma",
    "growth (%)": 104
  },
  {
    "MOLECULE": "N#CC(C#N)N=Nc1cc(Cl)ccc1Cl",
    "TARGET": "SK-MEL-2 melanoma",
    "growth (%)": 85.6
  },
  {
    "MOLECULE": "CN1CNC(=O)NC1",
    "TARGET": "SK-MEL-2 melanoma",
    "growth (%)": 114
  },
  {
    "MOLECULE": "CC(=O)NCC(=O)c1ccc([N+](=O)[O-])cc1",
    "TARGET": "SK-MEL-2 melanoma",
    "growth (%)": 136
  },
  {
    "MOLECULE": "Fc1ccc([I+]c2ccc(F)cc2)cc1",
    "TARGET": "SK-MEL-2 melanoma",
    "growth (%)": 68.8
  }
]
